- System: MT4
- ASSAY EXPLANATION: Antiviral activity by analysis of p24 antigen concentration for HIV-1 strain IIIB in de novo infected MT-4 cells
- Format: functional, cell-based
- CONDITION LABEL: Homo sapiens
MEASURE: pIC50
pIC50 (log units): -log10 of the concentration in mol/L.

Please fill in: pIC50 reported for COc1ccc(CN[C@@H](C(=O)N[C@H](C(=O)NCc2nc3ccccc3[nH]2)C(C)C)[C@H](O)[C@H](Cc2ccccc2)NC(=O)[C@@H](NC(=O)C(C)Oc2ccccc2)C(C)(C)C)cc1 (stereo partly drawn) = 8.10

Please fill in: pIC50 reported for COc1ccc(CN[C@@H](C(=O)N[C@H](C(=O)NCc2nc3ccccc3[nH]2)C(C)C)[C@H](O)[C@H](Cc2ccccc2)NC(=O)[C@@H](NC(=O)OCc2ccccc2)C(C)C)cc1 = 8.01

Please fill in: pIC50 reported for CC(C)[C@H](NC(=O)[C@H](NCc1ccccc1)[C@H](O)[C@H](Cc1ccccc1)NC(=O)[C@@H](NC(=O)OCc1ccccc1)C(C)(C)C)C(=O)NCc1ccccc1 = 7.03

----------
Field: Ki. Provide a value for each of the molecules that follow.
- SYSTEM: Human immunodeficiency virus type 1 protease (Human immunodeficiency virus 1, UniProt Q72874)

Please fill in: Ki reported for CC(C)[C@H](NC(=O)[C@H](NCc1ccccc1)[C@H](O)[C@H](Cc1ccccc1)NC(=O)[C@@H](NC(=O)OCc1ccccc1)c1ccccc1)C(=O)NCc1ccccc1 = 0.051 µM

Please fill in: Ki reported for CC(C)[C@H](NC(=O)OCc1ccccc1)C(=O)N[C@@H](Cc1ccccc1)[C@@H](O)[C@@H](NCc1ccc(Br)cc1)C(=O)N[C@H](C(=O)NCc1ccccc1)C(C)C = 0.023 µM

Please fill in: Ki reported for COc1ccc(CN[C@@H](C(=O)N[C@H](C(=O)NCc2nc3ccccc3[nH]2)C(C)C)[C@H](O)[C@H](Cc2ccccc2)NC(=O)[C@@H](NC(=O)OCc2ccccc2)C(C)(C)C)cc1 = 0.0046 µM

----------
- SYSTEM: Human immunodeficiency virus type 1 protease (Human immunodeficiency virus 1, UniProt Q72874)
Field: pKi. Provide a value for each of the molecules that follow.
pKi (log units): -log10 of the concentration in mol/L.

Please fill in: pKi reported for CC(C)[C@H](NC(=O)OCc1ccccc1)C(=O)N[C@@H](Cc1ccccc1)[C@@H](O)[C@@H](NC1CCCCC1)C(=O)N[C@H](C(=O)NCc1ccccc1)C(C)C = 7.47

Please fill in: pKi reported for CCOC(=O)[C@@H](NC(=O)[C@H](NCc1ccccc1)[C@H](O)[C@H](Cc1ccccc1)NC(=O)[C@@H](NC(=O)OCc1ccccc1)C(C)C)C(C)C = 5.92

Please fill in: pKi reported for CC(C)[C@H](NC(=O)OCc1ccccc1)C(=O)N[C@@H](Cc1ccccc1)[C@@H](O)[C@@H](Nc1ccccc1)C(=O)N[C@H](C(=O)NCc1ccccc1)C(C)C = 8.16

Please fill in: pKi reported for CC(C)[C@H](NC(=O)OCc1ccccc1)C(=O)N[C@@H](Cc1ccccc1)[C@@H](O)[C@@H](NCc1ccccc1)C(=O)N[C@@H](C(=O)NCc1ccccc1)C(C)(C)C.CC(C)[C@H](NC(=O)OCc1ccccc1)C(=O)N[C@@H](Cc1ccccc1)[C@@H](O)[C@@H](NCc1ccccc1)C(=O)N[C@H](C(=O)NCc1ccccc1)C(C)(C)C (stereo in doubt; 32(5:1)) = 7.70

Please fill in: pKi reported for COc1ccc(CN[C@@H](C(=O)N[C@H](C(=O)NCc2nc3ccccc3[nH]2)C(C)C)[C@H](O)[C@H](Cc2ccccc2)NC(=O)[C@@H](NC(=O)OCc2ccccc2)C(C)C)cc1 = 8.47

Please fill in: pKi reported for CC(C)[C@H](NC(=O)OCc1ccccc1)C(=O)N[C@@H](Cc1ccccc1)[C@@H](O)[C@@H](NCc1ccc(Cl)cc1)C(=O)N[C@H](C(=O)NCc1ccccc1)C(C)C = 7.77

Please fill in: pKi reported for CC(C)[C@H](NC(=O)OCc1ccccc1)C(=O)N[C@@H](Cc1ccccc1)[C@@H](O)[C@@H](Nc1ccc(-c2ccccc2)cc1)C(=O)N[C@H](C(=O)NCc1ccccc1)C(C)C = 7.23

Please fill in: pKi reported for CC(C)[C@H](NC(=O)OCc1ccccc1)C(=O)N[C@@H](Cc1ccccc1)[C@@H](O)[C@@H](NCCc1ccccc1)C(=O)N[C@H](C(=O)NCc1ccccc1)C(C)C = 7.47

Please fill in: pKi reported for CC(C)C[C@H](NC(=O)[C@H](NCc1ccccc1)[C@H](O)[C@H](Cc1ccccc1)NC(=O)[C@@H](NC(=O)OCc1ccccc1)C(C)C)C(=O)NCc1ccccc1 = 7.36
